Exercise: for every item that follows, state its recorded inhibition.
biological target: Ephrin type-B receptor 2 (Homo sapiens) (UniProt P29323); conditions: at 1 µM
Sequence (P29323 whole entry): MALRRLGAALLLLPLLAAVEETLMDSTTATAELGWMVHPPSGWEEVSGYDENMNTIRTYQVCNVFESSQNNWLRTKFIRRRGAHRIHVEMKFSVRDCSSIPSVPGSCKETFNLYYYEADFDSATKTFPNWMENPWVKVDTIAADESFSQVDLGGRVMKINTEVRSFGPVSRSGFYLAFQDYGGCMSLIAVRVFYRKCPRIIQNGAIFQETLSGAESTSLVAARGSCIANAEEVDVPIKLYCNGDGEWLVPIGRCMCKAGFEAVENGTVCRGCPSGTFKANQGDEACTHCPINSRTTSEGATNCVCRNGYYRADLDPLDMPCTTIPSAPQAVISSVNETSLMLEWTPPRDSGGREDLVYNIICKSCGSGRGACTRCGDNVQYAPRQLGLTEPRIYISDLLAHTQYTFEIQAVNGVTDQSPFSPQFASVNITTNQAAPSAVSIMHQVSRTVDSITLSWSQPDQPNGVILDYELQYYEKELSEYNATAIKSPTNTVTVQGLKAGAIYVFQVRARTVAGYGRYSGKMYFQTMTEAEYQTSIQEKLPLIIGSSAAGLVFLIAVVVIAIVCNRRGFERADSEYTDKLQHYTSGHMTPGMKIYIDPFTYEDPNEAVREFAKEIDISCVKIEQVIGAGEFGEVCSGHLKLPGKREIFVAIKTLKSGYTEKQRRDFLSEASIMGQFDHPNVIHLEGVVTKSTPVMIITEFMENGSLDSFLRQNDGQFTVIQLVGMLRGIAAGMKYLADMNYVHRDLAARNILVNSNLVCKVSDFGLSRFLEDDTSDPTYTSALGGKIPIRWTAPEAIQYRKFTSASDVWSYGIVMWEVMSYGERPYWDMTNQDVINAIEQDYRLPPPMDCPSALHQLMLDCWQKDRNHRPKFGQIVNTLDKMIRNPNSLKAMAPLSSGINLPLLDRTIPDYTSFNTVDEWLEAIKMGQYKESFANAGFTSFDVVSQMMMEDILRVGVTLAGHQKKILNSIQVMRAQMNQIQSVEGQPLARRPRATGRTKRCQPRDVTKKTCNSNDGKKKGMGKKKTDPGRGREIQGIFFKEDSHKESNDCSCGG
Description: GSK_PKIS: EPHB2 mean inhibition at 1 uM [Nanosyn]
Field: numeric (%). Do not append units.

Value of measured inhibition for the entry "NC(=O)c1cccc(Nc2nccc(Nc3cccc4[nH]ncc34)n2)c1" : 77.8

Value of measured inhibition for the entry "CC(=O)Nc1cccc(C#Cc2cncnc2Nc2ccc(OCc3cccc(F)c3)c(Cl)c2)n1" : 4.49

Value of measured inhibition for the entry "CN1CCC(C(=O)Nc2n[nH]c3nnc(-c4ccccc4)cc23)CC1" : 3.41

Value of measured inhibition for the entry "Fc1cccc(COc2ccc(Nc3ncnc4sc(-c5cccs5)cc34)cc2Cl)c1" : 2.33

Value of measured inhibition for the entry "CCn1c(-c2nonc2N)nc2c(C#CC(C)(C)O)nc(CN3CCCC3)cc21" : -4.07

Data origin, for the record: ChEMBL document CHEMBL1961873
